Below, each entry is listed with its recorded inhibition.
# target.entity: Glucose transporter (Leishmania mexicana)
# protocol.details: ST_JUDE_LEISH: Cytotoxicity at 2uM final concentration against transgenic Leishmania Mexicana promastigotes LmGT2 that are glucose transport deficient and complemented with the L. Mexicana glucose transporter 2. Activity is measured by DNA content using SYBR green in vitro
# Type: functional

Sample answers from the record:
1. COc1ccc2ncc(F)c(CCN3CCC4(CC3)COC(c3cc5c(cn3)OCCO5)=N4)c2n1 | -0.24%
2. CC(C)(C)C1=CC(=NNC(=O)c2ccncc2)C=C(C(C)(C)C)C1=O | -0.13%
3. c1cc(-c2ccc(CNCc3ccsc3)cc2)cc(-c2nc3ccccc3[nH]2)c1 | -2.01%
4. NC(=O)c1sc(-n2cnc3ccccc32)cc1OCc1ccccc1[N+](=O)[O-] | 6.48%
5. O=c1cc(NCCCCNCc2cccc(C(F)(F)F)c2)[nH]c2ccccc12 | 5.78%
6. O=S(=O)(Nc1cc2c(cc1O)CCN(C1CCC1)CC2)c1ccc(-c2ccc(F)cc2)cc1 | 3.1%
7. O=C(Nc1ccc(Oc2ccccc2)cc1)N[C@H]1CCN(Cc2ccc(OCCCN3CCCCC3)cc2)C1 | -3.91%
8. Cc1cc(N(C)CCCN2CCCCC2)nc(Nc2ccc(Cl)cc2)n1 | 2.88%

So what inhibition did N#CC(CC(=O)c1ccc(Cl)cc1)c1cccc(F)c1 (stereo not given) get with Glucose transporter (Leishmania mexicana)?
1.13%

So what inhibition did COc1ccc2nc3cc(Cl)ccc3c(NCCCCNc3c4ccc(Cl)cc4nc4ccc(OC)cc34)c2c1 get with Glucose transporter (Leishmania mexicana)?
9.15%

====

Below, each entry is listed with its recorded inhibition.
# target.entity: Solute carrier family 2, facilitated glucose transporter member 1 (Homo sapiens)
# protocol.details: ST_JUDE_LEISH: Cytotoxicity at 2uM final concentration against transgenic Leishmania Mexicana promastigotes LmGLUT1 that are glucose transport deficient and complemented with the human glucose transporter GLUT1. Activity is measured by DNA content using SYBR green in vitro
# Assay type: functional
Please state the figure in %; there is no need to write the unit.

Sample answers from the record:
1. O=C(NC(=S)Nc1cc(C(F)(F)F)cc(C(F)(F)F)c1)c1ccc(Cl)cc1 | 0.72
2. O=C(N[C@@H](Cc1cc(F)cc(F)c1)[C@H](O)CNCc1cccc(C(F)(F)F)c1)c1cc(C2CCCC2)cc(N2CCCC2=O)c1 | 1.51
3. CC(C)(C)Oc1ccc(CC2NC3(C(=O)N(Cc4ccc(C(C)(C)C)cc4)c4ccccc43)C3C(=O)N(c4ccc(Br)cc4)C(=O)C23)cc1 (stereo not drawn) | -1.37
4. Cc1nc2nc(N)nc(N)c2c(C)c1Cc1ccccc1Br | 7.5
5. COc1ccc(NC(=O)Nc2ccc(-c3ccc(-c4nc5ccccc5[nH]4)cc3)cc2)cc1 | 3.84

// lookup inhibition for c1ccc(C2CCC(N3CCC(N4CCN(c5ccccc5)CC4)CC3)CC2)cc1 (stereo not drawn)
5.35

// lookup inhibition for Cc1ccc(-c2ccc3c(c2)C=C(C(=O)NC2CCN(CCNC(=O)c4cccs4)CC2)CCC3)cc1
8.71

// lookup inhibition for Nc1nc(N)c2c(ccc3[nH]ccc32)n1
0.22

// lookup inhibition for CC(C)NCc1cccc(-c2ccc(-c3nc4cc(C(F)(F)F)ccc4[nH]3)cc2)c1
7.38

// lookup inhibition for Cc1cc(N[C@@H](Cc2ccccc2)C(=O)NCc2cccc(F)c2)nc(NCCCOC(C)C)n1
0.45

// lookup inhibition for CN(C)C(CNC(=O)c1cc(-c2ccncc2)c(-c2ccc(NC(=O)Nc3cccc(Cl)c3)cc2)o1)c1ccccc1 (stereo not drawn)
1.5

// lookup inhibition for O=C(/C=C/c1ccc(Cl)c(Cl)c1)NCCCCCN1CC[C@H](NC(=O)c2sc3ccccc3c2Cl)C1
5.64

// lookup inhibition for COc1ccc2ncc(F)c(CCN3CC[C@H](NCc4cc5c(s4)CCCN5)[C@H](O)C3)c2n1
9.63

// lookup inhibition for COc1cc(Cc2cnc(NCCN3CCNCC3)nc2N)ccc1OCc1ccc(C(F)(F)F)cc1
3.49

// lookup inhibition for CCN1CCN(C(=O)NC(C(=O)N2CCCC(COc3ccc(Cc4ccccc4)cc3)C2)c2cccs2)C(=O)C1=O (stereo not drawn)
3.59

// lookup inhibition for CC(C)(C)C1=CC(=NNC(=O)c2ccncc2)C=C(C(C)(C)C)C1=O
11.8

// lookup inhibition for CCOC(=O)NCCSC(C)(C)[C@H](NC(=O)[C@H](Cc1cc2ccccc2s1)[C@H](CC)N(O)C=O)C(=O)Nc1nccs1
0.32

// lookup inhibition for Clc1cccc(C=NNc2ccnc3cc(Cl)ccc23)c1
-1.51

// lookup inhibition for CC(=O)Nc1ccc(C(=O)Nc2ccc(-c3cccc(-c4nc5ccccc5[nH]4)c3)cc2)cn1
0.89

// lookup inhibition for O=C(c1ccc(F)c(F)c1)N1CCOC(CCN2CCC(c3ccccc3)CC2)(c2ccc(Cl)c(Cl)c2)C1 (stereo not drawn)
4.15

// lookup inhibition for N#Cc1ccc(N[C@@H](CC2CCCCC2)C(=O)N[C@@H]2CCCc3ccccc32)c2ccccc12
0.46

// lookup inhibition for CC=CC1CCNC(C(O)c2ccnc3ccc(OC)cc23)C1 (stereo not drawn)
2.16

// lookup inhibition for Cc1ccccc1Nc1cc(Nc2ccccc2C)c2ccccc2n1
42.9

// lookup inhibition for O=C(NCCc1ccccc1)N(Cc1cccc(-c2ccc(CNCc3ccc4c(c3)OCO4)cc2)c1)C1CCN(Cc2ccccc2)CC1
1.17

// lookup inhibition for Oc1nc(Cc2ccccc2)nc2ccc(Cl)cc12
2.13

// lookup inhibition for CC(O)C(C)(CO)NCc1ccc2c3c(cccc13)-c1ccccc1-2 (stereo not drawn)
15.7

// lookup inhibition for CCOc1ccc(C(=O)Nc2cc3c(c(C(F)(F)F)c2)CCNC3)cc1Cl
7.38

// lookup inhibition for CCc1cc(NCc2ccncc2)nc(Nc2ccc(F)cc2)n1
14.4
